- System: MCF7 cells
- assay.summary: Cell proliferation assay (ATPlite), MCF-7
- Type: cell-based, human
- measurement.setup: Homo sapiens, inhibition of cell proliferation, 72 h
- Description: MCF-7 human breast adenocarcinoma cells and HL-60 acute promyelocytic leukaemia cells were obtained from ATCC (LGC Promochem). HG-1 multiple myeloma cells were obtained from Dr. D. Hose (DKFZ Heidelberg). The CellSensor® HRE-bla HCT116 cell line (colorectal carcinoma) was obtained from Invitrogen. […]
measured.attribute: EC50

>  <molecule>
COc1ccc(S(=O)(=O)Nc2cc(-c3ccc(C#N)s3)ccc2C)cc1C [Example 109]

>  <measured.attribute>
EC50

>  <value.observed>
< 500 nM

$$$$
>  <molecule>
COc1ccc(S(=O)(=O)Nc2cc(-c3ccc(C#N)c(OC)c3)ccc2C)cc1 [Example 89]

>  <measured.attribute>
EC50

>  <value.observed>
< 500 nM

$$$$
>  <molecule>
Cc1ccc(S(=O)(=O)Nc2cc(-n3c(C)ccc3C)ccc2C)cc1 [Example 29]

>  <measured.attribute>
EC50

>  <value.observed>
1000 to 10000 nM

$$$$
>  <molecule>
COc1ccc(S(=O)(=O)Nc2cc(-c3ccc(C#N)c(OC)c3)ccc2C)cc1F [Example 103]

>  <measured.attribute>
EC50

>  <value.observed>
< 500 nM

$$$$
>  <molecule>
COc1ccc(-c2ccc(C)c(NS(=O)(=O)c3ccc(C)cc3)c2)nc1 [Example 44]

>  <measured.attribute>
EC50

>  <value.observed>
< 500 nM

$$$$
>  <molecule>
COc1ccc(S(=O)(=O)Nc2cc(-c3cc(C#N)cs3)ccc2C)cc1 [Example 56]

>  <measured.attribute>
EC50

>  <value.observed>
< 500 nM

$$$$
>  <molecule>
Cc1ccc(-c2ccc(C#N)s2)cc1NS(=O)(=O)c1ccc(C(F)(F)F)cc1 [Example 78]

>  <measured.attribute>
EC50

>  <value.observed>
500 to 1000 nM

$$$$
>  <molecule>
Cc1ccc(S(=O)(=O)Nc2cc(-c3ccc(C#N)c(F)c3)ccc2C)cc1 [Example 71]

>  <measured.attribute>
EC50

>  <value.observed>
< 500 nM

$$$$
>  <molecule>
COc1ccc(S(=O)(=O)Nc2cc(-c3cc(C)sc3C)ccc2C)cc1 [Example 13]

>  <measured.attribute>
EC50

>  <value.observed>
1000 to 10000 nM

$$$$
>  <molecule>
Cc1ccc(-c2ccc(C)c(NS(=O)(=O)c3ccc(C)cc3)c2)cc1 [Example 10]

>  <measured.attribute>
EC50

>  <value.observed>
1000 to 10000 nM

$$$$
>  <molecule>
COc1cc(-c2ccc(C)c(NS(=O)(=O)c3ccc(N)cc3)c2)ccc1C#N [Example 102]

>  <measured.attribute>
EC50

>  <value.observed>
< 500 nM

$$$$
>  <molecule>
Cc1ccc(-c2ccc(C#N)cc2)cc1NS(=O)(=O)c1ccc(O)cc1 [Example 100]

>  <measured.attribute>
EC50

>  <value.observed>
1000 to 10000 nM

$$$$
>  <molecule>
COc1ccc(-c2ccc(C)c(NS(=O)(=O)c3ccc(OC)cc3)c2)cc1 [Example 81]

>  <measured.attribute>
EC50

>  <value.observed>
< 500 nM

$$$$
>  <molecule>
COc1ccc(S(=O)(=O)Nc2cc(-n3cccc3C#N)ccc2C)cc1 [Example 41]

>  <measured.attribute>
EC50

>  <value.observed>
500 to 1000 nM

$$$$
>  <molecule>
COc1ccc(S(=O)(=O)Nc2cc(-c3ccsc3)ccc2C)cc1 [Example 14]

>  <measured.attribute>
EC50

>  <value.observed>
< 500 nM

$$$$
>  <molecule>
COc1ccc(S(=O)(=O)Nc2cc(-c3ccc(C#N)nc3)ccc2C)cc1 [Example 61]

>  <measured.attribute>
EC50

>  <value.observed>
< 500 nM

$$$$
>  <molecule>
Cc1ccc(S(=O)(=O)Nc2cc(-c3ccc(N)cn3)ccc2C)cc1 [Example 106]

>  <measured.attribute>
EC50

>  <value.observed>
1000 to 10000 nM

$$$$

###

- Test system: MCF7 cells
- assay.summary: Cell proliferation assay (ATPlite), MCF-7
- Assay type: cell-based, human
- measurement.setup: Homo sapiens, inhibition of cell proliferation, 72 h
- Description: MCF-7 human breast adenocarcinoma cells and HL-60 acute promyelocytic leukaemia cells were obtained from ATCC (LGC Promochem). HG-1 multiple myeloma cells were obtained from Dr. D. Hose (DKFZ Heidelberg). The CellSensor® HRE-bla HCT116 cell line (colorectal carcinoma) was obtained from Invitrogen. […]
pEC50: −log10 of the molar value.

>  <compound>
COc1ccc(S(=O)(=O)Nc2cc(-c3c(C)noc3C)ccc2C)cc1 [Example 16]

>  <pEC50>
> 6.30

$$$$
>  <compound>
COc1ccc(S(=O)(=O)Nc2cc(-c3ccc(C#N)cn3)ccc2C)cc1 [Example 49]

>  <pEC50>
> 6.30

$$$$
>  <compound>
Cc1ccc(-c2ccc(C#N)s2)cc1NS(=O)(=O)c1ccc(N)cc1 [Example 93]

>  <pEC50>
> 6.30

$$$$
>  <compound>
COc1cc(-c2ccc(C)c(NS(=O)(=O)c3ccc([N+](=O)[O-])cc3)c2)ccc1C#N [Example 101]

>  <pEC50>
5.00 to 6.00

$$$$

###

- System: HIF mediated transcription
- assay.summary: Inhibition of activation of HIF mediated transcription under hypoxic conditions (CellSensor HRE-bla HCT-116)
- Format: cell-based
- measurement.setup: Homo sapiens; HRE-bla HCT-116 cells, deferoxamine-induced hypoxia, 24 h
pEC50: −log10 of the molar value.

>  <compound>
COc1ccc(S(=O)(=O)Nc2cc(-c3csc(C#N)c3)ccc2C)cc1 [Example 73]

>  <target.system>
HIF mediated transcription

>  <pEC50>
> 6.30

$$$$
>  <compound>
COc1ccc(S(=O)(=O)Nc2cc(-c3ccc(C#N)c(OC)c3)ccc2C)cc1F [Example 103]

>  <target.system>
HIF mediated transcription

>  <pEC50>
> 6.30

$$$$
>  <compound>
Cc1cc(S(=O)(=O)Nc2cc(-c3ccc(C#N)s3)ccc2C)ccc1F [Example 112]

>  <target.system>
HIF mediated transcription

>  <pEC50>
> 6.30

$$$$

###

Each record here notes measured pEC50.
- System: MCF7 cells
- assay.summary: Cell proliferation assay (ATPlite), MCF-7
- Type: cell-based, human
- measurement.setup: Homo sapiens, inhibition of cell proliferation, 72 h
pEC50: −log10 of the molar value.

>  <smiles.code>
Cc1ccc(-c2ccc(C#N)cc2)cc1NS(=O)(=O)c1ccc(N)cc1

>  <target.system>
MCF7 cells

>  <pEC50>
> 6.30

$$$$
>  <smiles.code>
Cc1ccc(S(=O)(=O)Nc2cc(-c3ccc(C(F)(F)F)cn3)ccc2C)cc1

>  <target.system>
MCF7 cells

>  <pEC50>
5.00 to 6.00

$$$$
>  <smiles.code>
Cc1ccc(S(=O)(=O)Nc2cc(-c3ccc(F)c(C)n3)ccc2C)cc1

>  <target.system>
MCF7 cells

>  <pEC50>
6.00 to 6.30

$$$$
>  <smiles.code>
Cc1ccc(S(=O)(=O)Nc2cc(-c3ccc(C#N)s3)ccc2C)cc1

>  <target.system>
MCF7 cells

>  <pEC50>
> 6.30

$$$$
>  <smiles.code>
Cc1ccc(S(=O)(=O)Nc2cc(-c3ccoc3C)ccc2C)cc1

>  <target.system>
MCF7 cells

>  <pEC50>
> 6.30

$$$$
>  <smiles.code>
Cc1ccc(-c2ccc(C#N)s2)cc1NS(=O)(=O)c1ccc(O)cc1

>  <target.system>
MCF7 cells

>  <pEC50>
6.00 to 6.30

$$$$
>  <smiles.code>
Cc1ccc(-c2ccc(C#N)cc2)cc1NS(=O)(=O)c1ccc([N+](=O)[O-])c(F)c1

>  <target.system>
MCF7 cells

>  <pEC50>
5.00 to 6.00

$$$$
>  <smiles.code>
COc1cc(S(=O)(=O)Nc2cc(-c3ccc(C#N)s3)ccc2C)ccc1F

>  <target.system>
MCF7 cells

>  <pEC50>
6.00 to 6.30

$$$$
>  <smiles.code>
Cc1ccc(-c2ccc(C#N)s2)cc1NS(=O)(=O)c1ccc(OC(F)(F)F)cc1

>  <target.system>
MCF7 cells

>  <pEC50>
5.00 to 6.00

$$$$

###

- Tested on: MCF7 cells
- assay.summary: Cell proliferation assay (ATPlite), MCF-7
- Format: cell-based, human
- measurement.setup: Homo sapiens, inhibition of cell proliferation, 72 h
pEC50: −log10 of the molar value.

>  <smiles.code>
Cc1ccc(S(=O)(=O)Nc2cc(-c3ccc([N+](=O)[O-])cn3)ccc2C)cc1

>  <target.system>
MCF7 cells

>  <pEC50>
> 6.30

$$$$
>  <smiles.code>
COc1ccc(S(=O)(=O)Nc2cc(-c3ccccc3C#N)ccc2C)cc1

>  <target.system>
MCF7 cells

>  <pEC50>
6.00 to 6.30

$$$$
>  <smiles.code>
Cc1ccc(S(=O)(=O)Nc2cc(C)cc(-c3csc(C)c3)c2)cc1

>  <target.system>
MCF7 cells

>  <pEC50>
> 6.30

$$$$
>  <smiles.code>
Cc1ccc(S(=O)(=O)Nc2cc(-c3csc(C#N)c3)ccc2C)cc1F

>  <target.system>
MCF7 cells

>  <pEC50>
> 6.30

$$$$
>  <smiles.code>
Cc1ccc(S(=O)(=O)Nc2cc(-c3ccc(C)o3)ccc2C)cc1

>  <target.system>
MCF7 cells

>  <pEC50>
> 6.30

$$$$
